- ASSAY TARGET: KRAS G12C (Homo sapiens, UniProt P01116, G12C)
- Construct: HIS-KRAS (G12C, aa 2-185, Sino biological)
- Sequence (P01116 2-185 isoform P01116-2 G12C): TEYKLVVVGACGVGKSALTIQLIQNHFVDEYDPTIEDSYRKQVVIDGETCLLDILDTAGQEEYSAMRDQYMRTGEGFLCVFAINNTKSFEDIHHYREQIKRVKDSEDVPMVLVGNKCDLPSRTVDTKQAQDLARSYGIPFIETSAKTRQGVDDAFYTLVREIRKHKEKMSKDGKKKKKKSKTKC
- ASSAY COMMENT: SOS1 catalyzed nucleotide exchange assay (TR-FRET)
- CONDITION SUMMARY: GDP-loaded HIS-KRAS(G12C), 1 hour pre-incubation with compound
pIC50: −log10 of the molar value.
If the reported pIC50 equals or exceeds 8, assign met. If not, assign not met.

C=CC(=O)N1CCN(c2nc(OCC3(CN(C)C)CC3)nc3c2CCN(c2cccc4ncsc24)C3)CC1CC#N (stereo not shown) [Compound 54]
not met
C=CC(=O)N1CCN(c2nc(OCC3(CN4CC[C@H](N(C)C)C4)CC3)nc3c2CCN(c2cccc4cccc(C)c24)C3)CC1CC#N (stereo partly shown) [Compound 65]
met
C=CC(=O)N1CCN(c2nc(OCC3(N(C)C)CC3)nc3c2CCN(c2cccc4cccc(C)c24)C3)CC1CC#N (stereo not shown) [Compound 20]
not met
C=CC(=O)N1CCN(c2nc(OCC3CC3CN(C)C)nc3c2CCN(c2cccc4ccccc24)C3)CC1CC#N (stereo not shown) [Compound 19]
not met
C=CC(=O)N1CCN(c2nc(OCC3CCC(N(C)C)C3)nc3c2CCN(c2cccc4cccc(C)c24)C3)CC1CC#N (stereo not shown) [Compound 24]
not met

Turning now to a further record.
Decide: pIC50 of C=CC(=O)N1CCN(c2nc(OCC3(CN4CCC4)CC3)nc3c2CCN(c2cccc4cccc(C)c24)C3)CC1CC#N (stereo not shown) [Compound 43] >= 8?
met
